Conditions: in acetonitrile, 283.15 K
Observable: solubility (mole fraction)
Just the number, please, no unit after it.

Query block: For the compound shown here, CC#CCn1c(N2CCC[C@@H](N)C2)nc2c1c(=O)n(Cc1nc(C)c3ccccc3n1)c(=O)n2C , give the reported solubility (mole fraction).
Result block: 0.000675

====

Settings: in methanol, 313.15 K
Observable: solubility (mole fraction)

Query block: For the molecule shown here, CC#CCn1c(N2CCC[C@@H](N)C2)nc2c1c(=O)n(Cc1nc(C)c3ccccc3n1)c(=O)n2C , give the reported solubility (mole fraction).
Result block: 0.00302

====

Conditions: in ethanol, 303.15 K
Observable: solubility (mole fraction)
Just the number, please, no unit after it.

Query block: For the compound shown here, CC#CCn1c(N2CCC[C@@H](N)C2)nc2c1c(=O)n(Cc1nc(C)c3ccccc3n1)c(=O)n2C , give the reported solubility (mole fraction).
Result block: 0.00163

====

Conditions: in acetonitrile, 303.15 K
Observable: solubility (mole fraction)

Query block: For the molecule shown here, CC#CCn1c(N2CCC[C@@H](N)C2)nc2c1c(=O)n(Cc1nc(C)c3ccccc3n1)c(=O)n2C , give the reported solubility (mole fraction).
Result block: 0.00132

====

Conditions: in acetonitrile, 278.15 K
Observable: solubility (mole fraction)
Just the number, please, no unit after it.

Query block: For the compound shown here, CC#CCn1c(N2CCC[C@@H](N)C2)nc2c1c(=O)n(Cc1nc(C)c3ccccc3n1)c(=O)n2C , give the reported solubility (mole fraction).
Result block: 0.000546

====

Conditions: in methanol, 288.15 K
Observable: solubility (mole fraction)
Just the number, please, no unit after it.

Query block: For the compound shown here, CC#CCn1c(N2CCC[C@@H](N)C2)nc2c1c(=O)n(Cc1nc(C)c3ccccc3n1)c(=O)n2C , give the reported solubility (mole fraction).
Result block: 0.00121

====

Conditions: in isopropanol, 308.15 K
Observable: solubility (mole fraction)
Just the number, please, no unit after it.

Query block: For the compound shown here, CC#CCn1c(N2CCC[C@@H](N)C2)nc2c1c(=O)n(Cc1nc(C)c3ccccc3n1)c(=O)n2C , give the reported solubility (mole fraction).
Result block: 0.000765

====

Conditions: in isopropanol, 293.15 K
Observable: solubility (mole fraction)
Just the number, please, no unit after it.

Query block: For the compound shown here, CC#CCn1c(N2CCC[C@@H](N)C2)nc2c1c(=O)n(Cc1nc(C)c3ccccc3n1)c(=O)n2C , give the reported solubility (mole fraction).
Result block: 0.000496

====

Conditions: in ethanol, 298.15 K
Observable: solubility (mole fraction)
Just the number, please, no unit after it.

Query block: For the compound shown here, CC#CCn1c(N2CCC[C@@H](N)C2)nc2c1c(=O)n(Cc1nc(C)c3ccccc3n1)c(=O)n2C , give the reported solubility (mole fraction).
Result block: 0.00137

====

Details: in acetonitrile, 293.15 K
Observable: solubility (mole fraction)
Just the number, please, no unit after it.

Query block: For the molecule shown here, CC#CCn1c(N2CCC[C@@H](N)C2)nc2c1c(=O)n(Cc1nc(C)c3ccccc3n1)c(=O)n2C , give the reported solubility (mole fraction).
Result block: 0.000974

====

Conditions: in acetonitrile, 273.15 K
Observable: solubility (mole fraction)
Just the number, please, no unit after it.

Query block: For the compound shown here, CC#CCn1c(N2CCC[C@@H](N)C2)nc2c1c(=O)n(Cc1nc(C)c3ccccc3n1)c(=O)n2C , give the reported solubility (mole fraction).
Result block: 0.000425

Source listed as BigSolDB 2.1.
